Assay: in vivo
Details: Wistar-Han, rat, po, 3 mg/kg
parameter: Cmax (nM)
Output spec: scalar in nM, unitless text.

Please look up its Cmax: `Nc1ncc(-c2ncccc2OC(F)(F)F)nc1C(=O)Nc1ncccc1N1CCC(N)CC1` 756

###

Assay: in vivo
Conditions: Wistar-Han, rat, iv, 0.3 mg/kg
parameter: AUC (µM·h)
Express your answer in µM·h, writing the number without its unit.

Given `Nc1ncc(-c2ncccc2OC(F)(F)F)nc1C(=O)Nc1ncccc1N1CCC(N)CC1` , state its recorded AUC. 0.38

###

Test: in vivo
Settings: C57BL/6, mouse
parameter: half-life (min)
Respond numerically; units are min and should not be typed.

What value of half-life has been reported for the following compound? `Nc1ncc(-c2ncccc2OC(F)(F)F)nc1C(=O)Nc1ncccc1N1CCC(N)CC1` 30
